Every entry's value here was drawn from the RNAGym collection of RNA variant scans (doi:10.1093/molbev/msab373).

What reverse-splicing fitness was measured for each of the following?
B1: Azoarcus group I ribozyme (parent)
chain: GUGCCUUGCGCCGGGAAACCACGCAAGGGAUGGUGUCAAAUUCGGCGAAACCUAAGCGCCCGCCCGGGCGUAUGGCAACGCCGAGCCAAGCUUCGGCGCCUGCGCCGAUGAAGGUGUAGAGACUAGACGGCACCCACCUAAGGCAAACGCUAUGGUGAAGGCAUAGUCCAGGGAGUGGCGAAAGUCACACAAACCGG

Variants of: B1
Test: reverse-splicing fitness (ratio to wild type); higher = more active; in vitro selection; Mg2+ level not given
Give bare numbers.

Recorded reverse-splicing fitness, per entry:
C82A A111U A120U C150A C169A
0.00615
C82G A111G A120U A145C C150U C169A U176G
0.00197
C82A A111C A120C A145C C150G C169U U176G
0.00564
C82A A111C A120G C150G C169U U176A
0.00801
C82U A111C A145U U176G
0.0238

Give reverse-splicing fitness for all variants that follow.
1. C82U A111U A145C C169G
2. C82U A120G A145G C150A C169U U176G
3. A111C A120U A145U C150A C169U U176A
4. C82U A111C A120U C150U C169G U176G
5. C82U A111U A120U A145C C150A C169U U176G

A:
1: 0.0091; 2: 0.0051; 3: 0.00386; 4: 0.00228; 5: 0.00213

Q: State, in one line, measured reverse-splicing fitness of A111C A120U A145C C150U
A: 0.18
